Listing of recorded Kd by entry.
TARGET_OF_ASSAY: T1, GFP-9S library array, motif 4 ND N98C;D124F (synthetic construct, N98C;D124F)
T1 chain: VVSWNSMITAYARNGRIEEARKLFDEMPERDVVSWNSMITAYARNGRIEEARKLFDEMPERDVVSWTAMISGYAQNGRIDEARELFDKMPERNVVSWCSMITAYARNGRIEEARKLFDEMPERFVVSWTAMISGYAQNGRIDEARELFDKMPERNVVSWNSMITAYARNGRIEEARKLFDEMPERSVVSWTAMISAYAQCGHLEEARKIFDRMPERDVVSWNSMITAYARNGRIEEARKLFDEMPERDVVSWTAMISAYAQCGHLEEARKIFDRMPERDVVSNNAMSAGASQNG
EXPERIMENT_DESCRIPTION: high-throughput RNA pulldown from lysate on Ni-NTA beads; HRP: 50 mM Tris pH 8, 150 mM NaCl, 1 mM beta-mercaptoethanol, 50 ug/ml BSA, 3 ug/ml yeast RNA, 0.5% heparin; ITC and FP: Tris pH 8, 200 mM KCl, 5% glycerol; MST: 50 mM Tris pH 8, 200 mM NaCl, 1 mM DTT, BSA, heparin, 0.05% Tween 20
MEASUREMENT_SETUP: tags: N-terminal His-eGFP; label: 5' IRDye 800CW
// units = nM; emit number, no label

>>> measured_value("AUUAAACGUGA (ssRNA) [IR-rpoA-A]")
203

Turning to the following binder.
Task: Quick one: Kd of AUUAUACGUGA (ssRNA) [IR-rpoA-U] ?
Output: 317
